Test system: MS2 coat protein
Measurement Protocol: apparent KD of MS2 coat protein, switch ON state; designed switch direction (-1 OFF switch, 1 ON switch): 1; higher = weaker reporter binding
Reported Conditions: FMN input: 0 or 200 uM; Eterna round: R93 (includes R88 designs)
Respond with satisfied for apparent KD of MS2 coat protein values of 20 nM and above, not satisfied for values below.

Exam item: decide whether the reported apparent KD of MS2 coat protein for AGCGAACAUGAGGAUCACCCAUGUGAAAAACAUAGAGGAUAUGUCGCAUGCGUGUAAAAGACAGAAGGCUAUCGCG [Mat - Mod of Nando] is at least 20 nM.
satisfied

Determine whether this sequence has apparent KD of MS2 coat protein no lower than 20 nM: AGAAAACAUGAGGAUCACCCAUGUGACAAUAUGGGAGGAUAUACCAAGACGAAAGUCGAAGUAGAAGGCCUAAAGA [Garnet 51]
satisfied

Given the entry AAGUCACAUGAGGAUCACCCAUGUCGUAAACGAUGAGGAUAUAGGAAGAAAAAAAAAAAACUAGAAGGUAUUACAA [SameState1-02] , answer whether its apparent KD of MS2 coat protein meets or surpasses 20 nM.
satisfied

Check if apparent KD of MS2 coat protein >= 20 nM (inclusive). Item: GAAGACAUAGUAUAGGAUAUAUGAAUAAUUACAUGAGGAUCACCCAUGUGCAUUUAUAUGCGAACAUAGAAGGGUGGUAGUUGUC [Mat - Same state - Malcolm Mod - D129]
satisfied

Please check the record AGAAAACAUGAGGAUCACCCAUGUAGAAAUAUGGGAGGAUAUACGAAGACGAAAGUCAAAGUAGAAGGCCUAAGAA [Mat - Same State 1 - Eli mod - D108] and state if its apparent KD of MS2 coat protein is at or above 20 nM.
not satisfied

State whether the measured apparent KD of MS2 coat protein reaches 20 nM, counting equality as reaching it, for AAAAGACAUGAGGAUCACCCAUGUAAAGACGUGGGAGGAUAUGUAUGGAAACCAGACUGUACAGAAGGCCUCUGUC [SS1 - 72]
satisfied
